Assay: Toxicity liver stage against HepG2, at 10uM
Format: cell-based
Design: test concentration 10 uM, cell line HepG2-A16-CD81EGFP
Conditions: human, HepG2-A16-CD81EGFP cells; read-out: INHIBITION
reported metric: cytotoxicity at 10 µM (%)
Give the number; % is assumed, so skip it.

# get_value(readout='cytotoxicity at 10 µM', item= `CCc1nc(N2CCN(Cc3ncccc3C)CC2)c2cnn(C)c2n1` ) -6.46

Now give it for `Cc1ccsc1CNC(=O)c1ccc(N2CCNC2=O)cc1` too. 1.79

Now give it for COc1ccc(C)cc1CN1CCOC(Cn2nc(C)nc2C)C1 (centres undefined) too. -2.47

Now give it for Cn1ccc(C(=O)NC2CCC23CCN(C(=O)c2cnccn2)CC3)c1 (centres undefined) too. -71.4

Now give it for COc1ccccc1CC1CCCN(C(=O)c2cn[nH]c2C)C1 (centres undefined) too. 7.61

Next:
# get_value(readout='cytotoxicity at 10 µM', item= `CN1CCCN(c2nccc(-c3cc(C(=O)O)ccn3)n2)CC1` ) 13.1

Now give it for COCC(O)CN(C)C(=O)c1cccc(-c2csc(C)n2)c1 (centres undefined) too. -3.04

###

Test: Toxicity liver stage against HepG2, at 10uM
Assay type: cell-based
Set-up: test concentration 10 uM, cell line HepG2-A16-CD81EGFP
Settings: human, HepG2-A16-CD81EGFP cells; read-out: INHIBITION
reported metric: cytotoxicity at 10 µM (%)
Give the number; % is assumed, so skip it.

# get_value(readout='cytotoxicity at 10 µM', item= CN(Cc1cnn(C)c1)C(=O)NC1CCS(=O)(=O)C1 (configuration not stated) ) -14.4

Switching to the query record.
# get_value(readout='cytotoxicity at 10 µM', item= `Cc1cc(CCC(=O)N2CCC(O)CC2)ccc1Br` ) -4.3

###

Known cytotoxicity at 10 µM of a selection of compounds
Assay: Toxicity liver stage against HepG2, at 10uM
Assay type: cell-based
Set-up: test concentration 10 uM, cell line HepG2-A16-CD81EGFP
Conditions: human, HepG2-A16-CD81EGFP cells; read-out: INHIBITION
Give the number; % is assumed, so skip it.

The cases that follow already have their cytotoxicity at 10 µM on record.
# get_value(readout='cytotoxicity at 10 µM', item= `COc1ccc(CC(=O)NCCn2nc3ccccn3c2=O)cc1` ) -8.61

Now give it for CCc1ccc(C2CCCCCN2C(=O)CNC(=O)NC2CC2)o1 (stereo not drawn) too. 0.0456

Now give it for COc1ccc(CN2CCC3(CC2)C(C(=O)O)CC(=O)N3C)cc1Cl (stereo not drawn) too. -5.66

Now give it for `CNC(=O)CCc1cc(C)nc(C2CCN(c3ccccc3)CC2)c1` too. 3.56

Now give it for `COc1cccc(-c2ccc3nc(C4CCN(C(C)=O)CC4)nn3c2)c1` too. 9.84

Now give it for `CCCc1cc(C(=O)N2C[C@H]3CCC[C@@]3(CO)C2)[nH]n1` too. 10.4

Now give it for Cc1cnn(CC2CN(Cc3ccccn3)CCO2)c1 (stereo not drawn) too. -2.84

Now give it for `OCCc1ccccc1-n1ccnc1-c1cn(C2CCNCC2)nn1` too. 2.39

Now give it for `CCN(CC)CCn1c(=O)oc2ccccc21` too. 2.96

Now give it for `Cc1cccc(CNc2cncc(-n3cccn3)n2)c1` too. -7.09

Next:
# get_value(readout='cytotoxicity at 10 µM', item= `CC(C)n1cc(C(=O)NCCN(C)C)c2n[nH]c(=O)c-2c1` ) 9.06

Now give it for `COCCO[C@H]1CCN(C(=O)c2cnccn2)[C@H]1Cc1ccncc1` too. -70.3

Now give it for CC(=O)NC1CCCc2c1[nH]c1ccc(F)cc21 (stereo not drawn) too. -4.41

Now give it for Cn1cnnc1C1CCCN(c2nc3ccccc3o2)C1 (stereo not drawn) too. -17.4

Now give it for `Cc1cc(C(=O)NCC(C)C)nn1C` too. -0.971

Now give it for CNc1cccc(C2CCCN(C(=O)c3coc(C)n3)C2)n1 (stereo not drawn) too. -11.7

Now give it for CNc1cc(C)nc(C2CN(Cc3cncs3)CCO2)c1 (stereo not drawn) too. -12.3

Now give it for `Cc1cc(CC(=O)N2CCN(CC(C)C)[C@@H]3CS(=O)(=O)C[C@@H]32)ccc1F` too. -2.22

###

Experiment: Toxicity liver stage against HepG2, at 10uM
Format: cell-based
Design: test concentration 10 uM, cell line HepG2-A16-CD81EGFP
Details: human, HepG2-A16-CD81EGFP cells; read-out: INHIBITION
reported metric: cytotoxicity at 10 µM (%)
Give the number; % is assumed, so skip it.

# get_value(readout='cytotoxicity at 10 µM', item= `C=C/C=c1\c(=C/C)oc2c(NCc3ccccc3)nc(CC)nc12` ) 10.4

Now give it for COCCN1CCC(CN(CC2CCCO2)C(=O)Cc2cccs2)CC1 (stereo unspecified) too. -0.894

Switching to the query record.
# get_value(readout='cytotoxicity at 10 µM', item= `Cc1ccc(CN(C)Cc2cc(C3CC3)[nH]n2)c(O)n1` ) 4.11

###

Assay: Toxicity liver stage against HepG2, at 10uM
Assay type: cell-based
Parameters: test concentration 10 uM, cell line HepG2-A16-CD81EGFP
Conditions: human, HepG2-A16-CD81EGFP cells; read-out: INHIBITION
reported metric: cytotoxicity at 10 µM (%)
Give the number; % is assumed, so skip it.

# get_value(readout='cytotoxicity at 10 µM', item= CC(NC(=O)CN1CCN(Cc2ccc(Br)s2)CC1)c1ccccc1 (stereo not given) ) 8.44

Next:
# get_value(readout='cytotoxicity at 10 µM', item= `CCCN1CCCn2nc(CNS(=O)(=O)c3ccc(C)cc3)cc2C1` ) 1.6

Now give it for COc1c(C2CCCN2Cc2cc(C)no2)c(C)nn1C (stereo not given) too. -7.25

Now give it for `Cc1nc(CN2C[C@@H]3CCCO[C@@H]3[C@H](NC(=O)CC3CC3)C2)cs1` too. 9.2

Now give it for CCn1ccnc1CN1CCN(C(C)C(=O)N2CCC(C)CC2)CC1 (stereo not given) too. -10.7

Now give it for `CNCC(=O)Nc1cccc(-c2cnc(NCCS(C)(=O)=O)nc2)c1` too. -1.31

###

Experiment: Toxicity liver stage against HepG2, at 10uM
Type: cell-based
Parameters: test concentration 10 uM, cell line HepG2-A16-CD81EGFP
Settings: human, HepG2-A16-CD81EGFP cells; read-out: INHIBITION
Known cytotoxicity at 10 µM of a selection of molecules
Number first, unit second.

# get_value(readout='cytotoxicity at 10 µM', item= `O=C(CCNCC(F)(F)F)N1CCC(Nc2cccnn2)CC1` ) -1.5%

Now give it for `CC(=O)NCCOc1cccc(Br)c1` too. -3.06%

Now give it for CCC(NC(=O)c1cnc(N(C)C)nc1C)c1ccncc1 (configuration not stated) too. -2.9%

Now give it for `c1nn(C2CCCCC2)cc1-c1cncn1CCCN1CCCCC1` too. 2.37%

Now give it for `c1cnc(N2CCc3onc(CN4CCCC4)c3C2)cn1` too. -3.09%

Now give it for Cc1ccc(N2CCCc3sc(C(=O)NCC4CCCO4)nc32)nn1 (configuration not stated) too. -1.19%

Next:
# get_value(readout='cytotoxicity at 10 µM', item= CCc1nc(C2CCCN(C(=O)c3ccccc3F)C2)no1 (configuration not stated) ) 2.64%

Now give it for `O=C(c1ccoc1)N1CC[C@@H]2O[C@@H](COCCN3CCCC3)CC[C@@H]21` too. -89.7%

###

Assay: Toxicity liver stage against HepG2, at 10uM
Assay type: cell-based
Set-up: test concentration 10 uM, cell line HepG2-A16-CD81EGFP
Conditions: human, HepG2-A16-CD81EGFP cells; read-out: INHIBITION
reported metric: cytotoxicity at 10 µM (%)
Give the number; % is assumed, so skip it.

# get_value(readout='cytotoxicity at 10 µM', item= `Cc1ccc(-c2ncc(CN3CCN(S(N)(=O)=O)CC3)s2)o1` ) -3.41

Now give it for `CCn1nc(C(C)C)cc1C(=O)NCCCOC` too. -14.7

Now give it for Fc1cc(Cl)cnc1N1CCCC(c2nccn2Cc2ccccn2)C1 (configuration not stated) too. -3.54

Now give it for `CCN(Cc1cnn(C)c1)C[C@H]1CC[C@@H](Cc2cccc(CN)c2)O1` too. -0.189

Next:
# get_value(readout='cytotoxicity at 10 µM', item= `CCCN(Cc1nccn1C)C(=O)c1cc(C(C)C)on1` ) 4.24

Now give it for COCCOc1cccc(CNC(=O)CN2CCN(C)CC2C)c1 (configuration not stated) too. -4.07

Now give it for `Cc1nnsc1C(=O)N1C[C@@H]2CC[C@H]1CN(c1cnccn1)C2` too. 9.88

Now give it for `COCCN1CCC(NC(=O)C2(c3cc(C)cc(C)c3)CC2)CC1` too. -4.37

Now give it for `O=C1CC[C@H]2[C@H](CCN2c2ncc(F)cn2)N1c1ccccc1` too. 5.86

Now give it for Cc1ccc(S(=O)(=O)N2CCC3(CC(C(=O)NC4CCC4)=NO3)C2)cc1 (configuration not stated) too. -1.77

Now give it for Cc1ccsc1C(=O)N1CCC2(CC(N(C)c3ccncn3)C2)C1 (configuration not stated) too. -5.75

Now give it for `CN(Cc1ccc(F)cc1)Cc1cc2c(cc1Br)OCCO2` too. -138
